# TEST_METHOD_NOTES: Pharmacokinetic study in rats (intragastrical administration, plasma LC-MS/MS)
# EXPERIMENTAL_CONTEXT: male, SD, rat, po, 3 mg/kg
MEASURED_PROPERTY: half-life (h)

CCN1CCC(N2CCN3c4ccc(Nc5ncc6c(C)c(C(C)=O)c(=O)n(C7CCCC7)c6n5)cc4OC[C@@H]3C2)CC1 [Compound 4S] = 10.7
CC(=O)c1c(C)c2cnc(Nc3ccc4c(c3)OC[C@H]3CN(C5CCN(C(C)=O)CC5)CCN43)nc2n(C2CCCC2)c1=O [Compound 5R] = 2.91
CC(=O)c1c(C)c2cnc(Nc3ccc4c(c3)OC[C@@H]3CN(C5CCOCC5)CCN43)nc2n(C2CCCC2)c1=O [Compound 1S] = 6.41
CC(=O)c1c(C)c2cnc(Nc3ccc4c(c3)OC[C@H]3CN(C5CCOCC5)CCN43)nc2n(C2CCCC2)c1=O [Compound 1R] = 2.96
CC(=O)c1c(C)c2cnc(Nc3ccc4c(c3)OC[C@@H]3CN(C5CCNCC5)CCN43)nc2n(C2CCCC2)c1=O [Compound 3S] = 5.68

I. CC(=O)c1c(C)c2cnc(Nc3ccc4c(c3)OC[C@@H]3CN(C5COC5)CCN43)nc2n(C2CCCC2)c1=O [Compound 13S]
II. CC(=O)c1c(C)c2cnc(Nc3ccc4c(c3)OCC3CNCCN43)nc2n(C2CCCC2)c1=O (centres unmarked) [Ref-B, reference compound]
III. CC(=O)c1c(C)c2cnc(Nc3cc(F)c4c(c3)OC[C@@H]3CN(C5CCN(C)CC5)CCN43)nc2n(C2CCCC2)c1=O [Compound 9S]
IV. CC(=O)c1c(C)c2cnc(Nc3ccc4c(c3)OC[C@@H]3CN(C5CCN(C6CC6)CC5)CCN43)nc2n(C2CCCC2)c1=O [Compound 6S]
Arrange by half-life, high to low. The response must list the labels following the requested ordering.
III, II, IV, I
(III: 15.6 h, II: 6.71 h, IV: 4.31 h, I: 1.95 h)
